B1: Double-stranded RNA-binding protein Staufen homolog 1, residues 183 to 249; numbered along this chain, O95793 (parent)
chain: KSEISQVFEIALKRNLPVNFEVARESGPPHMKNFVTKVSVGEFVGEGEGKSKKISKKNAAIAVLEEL

Variants of: B1
Test: abundance fitness (aPCA) (normalised: wild type 0, dead -1); higher = more abundant; growth selection in yeast, the domain comes from the species named
Details: Homo sapiens
Label scheme for abundance fitness: lower than -0.01 is criterion not met, -0.01 and above is criterion met.

Illustrative cases are given below, each with its answer.
Identify whether the reported abundance fitness of the following variant is -0.01 or greater: KSEISQVFEIALKRNLPVNFEVARESGPPHMKNFVTKVSVGEFVGEGEGKSKKISKKNAAIAFLEEL [V63F] criterion not met

Identify whether the reported abundance fitness of the following variant is -0.01 or greater: KSEISQVFEIALKRNLPVNFEVARYSGPPHMKNFVTKVSVGEFVGEGEGKSKKISKKNAAIAVLEEL [E25Y] criterion not met

Identify whether the reported abundance fitness of the following variant is -0.01 or greater: KSEISQVFEIALKRNLPVNFEVARESGPPHMKNFVTKVSVGEFVGEGEGKSPKISKKNAAIAVLEEL [K52P] criterion not met

Identify whether the reported abundance fitness of the following variant is -0.01 or greater: KSEISQVFEIALKRNLPVNFEVARESGPPHMKNFVTKVSVGEFVGEGEGKSKKISKKNAAIAVLSEL [E65S] criterion met

Identify whether the reported abundance fitness of the following variant is -0.01 or greater: KSEISQVFEIALKRNLPVNFEVARESGPPHMKNFVTKVSVGEFVGEGWGKSKKISKKNAAIAVLEEL [E48W] criterion not met

---
Identify whether the reported abundance fitness of the following variant is -0.01 or greater: KQEISQVFEIALKRNLPVNFEVARESGPPHMKNFVTKVSVGEFVGEGEGKSKKISKKNAAIAVLEEL [S2Q] criterion not met

Identify whether the reported abundance fitness of the following variant is -0.01 or greater: KSEISQVFEIALKRNLPVNFQVARESGPPHMKNFVTKVSVGEFVGEGEGKSKKISKKNAAIAVLEEL [E21Q] criterion met

Identify whether the reported abundance fitness of the following variant is -0.01 or greater: KSEISQVFEIALKRNLPVNFEVARESGPPHMKNFVTKVSVGEFVGEGEGKSKKISKKNAAIAVLEIL [E66I] criterion met

Identify whether the reported abundance fitness of the following variant is -0.01 or greater: KSEISQVFEIALKRNLPVNFEVARESGPPHTKNFVTKVSVGEFVGEGEGKSKKISKKNAAIAVLEEL [M31T] criterion met

Identify whether the reported abundance fitness of the following variant is -0.01 or greater: KSEISQVFEIALKRNLPVNFEVARESGPPHMKNFVTKWSVGEFVGEGEGKSKKISKKNAAIAVLEEL [V38W] criterion not met

Identify whether the reported abundance fitness of the following variant is -0.01 or greater: KSEISQVFEIALKRNLPMNFEVARESGPPHMKNFVTKVSVGEFVGEGEGKSKKISKKNAAIAVLEEL [V18M] criterion not met

Identify whether the reported abundance fitness of the following variant is -0.01 or greater: KSEISQVFEIALKRNLPVNFYVARESGPPHMKNFVTKVSVGEFVGEGEGKSKKISKKNAAIAVLEEL [E21Y] criterion not met

Identify whether the reported abundance fitness of the following variant is -0.01 or greater: KSEISQVFEIALKRNEPVNFEVARESGPPHMKNFVTKVSVGEFVGEGEGKSKKISKKNAAIAVLEEL [L16E] criterion not met

Identify whether the reported abundance fitness of the following variant is -0.01 or greater: KSEISQVFEIAAKRNLPVNFEVARESGPPHMKNFVTKVSVGEFVGEGEGKSKKISKKNAAIAVLEEL [L12A] criterion met

Identify whether the reported abundance fitness of the following variant is -0.01 or greater: KSEISQVFEIALKRNLPVNFEVARESGPPHMKNQVTKVSVGEFVGEGEGKSKKISKKNAAIAVLEEL [F34Q] criterion not met

Identify whether the reported abundance fitness of the following variant is -0.01 or greater: KSEISQVFEIALKRNGPVNFEVARESGPPHMKNFVTKVSVGEFVGEGEGKSKKISKKNAAIAVLEEL [L16G] criterion not met

Identify whether the reported abundance fitness of the following variant is -0.01 or greater: KSEISQVFEIALKRNLPPNFEVARESGPPHMKNFVTKVSVGEFVGEGEGKSKKISKKNAAIAVLEEL [V18P] criterion not met

Identify whether the reported abundance fitness of the following variant is -0.01 or greater: KSEISQVFEIALKRNLPVNFEVARESGPPAMKNFVTKVSVGEFVGEGEGKSKKISKKNAAIAVLEEL [H30A] criterion not met

Identify whether the reported abundance fitness of the following variant is -0.01 or greater: KSEISQVFEIALKRNLPVNFEVARESGPPHMKRFVTKVSVGEFVGEGEGKSKKISKKNAAIAVLEEL [N33R] criterion met

Identify whether the reported abundance fitness of the following variant is -0.01 or greater: KSEISQVFEIALKRNLPVNFEVARESGPPHMKNFVTKVSVGERVGEGEGKSKKISKKNAAIAVLEEL [F43R] criterion not met

Identify whether the reported abundance fitness of the following variant is -0.01 or greater: KSEISQVFEIALVRNLPVNFEVARESGPPHMKNFVTKVSVGEFVGEGEGKSKKISKKNAAIAVLEEL [K13V] criterion not met

Identify whether the reported abundance fitness of the following variant is -0.01 or greater: KSEISQVFEIALKRNLPVSFEVARESGPPHMKNFVTKVSVGEFVGEGEGKSKKISKKNAAIAVLEEL [N19S] criterion met
